// data source = the Human Domainome abundance scans (Beltran et al. 2025)

B1: Gamma-crystallin C, residues 91 to 170; numbered along this chain, P07315 (parent)
chain: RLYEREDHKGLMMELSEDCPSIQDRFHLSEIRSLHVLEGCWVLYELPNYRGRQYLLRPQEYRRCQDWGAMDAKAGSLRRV

Variants of: B1
Assay: abundance fitness (aPCA) (normalised: wild type 0, dead -1); higher = more abundant; growth selection in yeast, the domain comes from the species named
Conditions: Homo sapiens
// map abundance fitness to label using lower level: < -0.6; middle level: ≥ -0.6 and < -0.2; upper level: ≥ -0.2

Y54T : lower level
Y49S : lower level
E14A : upper level
L28V : upper level
F26Y : middle level

Q: Exercise: read the entry `R32P` and state which class it falls under.
Result: upper level

Q: Into which category would you place `L15M` ?
Result: middle level

Q: // return the class label for `A74T`
Result: upper level

Q: Form: Item = `R63Y` ; Class = ?
Result: middle level

Q: Using the reported abundance fitness, which band applies to `P58L` ?
Result: lower level

Q: Could you place `F26T` in its proper category? Many thanks.
Result: middle level

Q: Which bin, given its abundance fitness, does `Y49M` occupy?
Result: lower level

Q: Band assignment needed for `S21A` please.
Result: middle level

Q: Hi there! Could you help me figure out the category for `L34S` please?
Result: lower level

Q: Place this variant in its band: `N48Q`
Result: upper level

Q: Which class is correct for the following variant? `A74V`
Result: upper level

Q: Which class holds `R1S` ?
Result: lower level

Q: Where would `D66L` land among the classes by reported abundance fitness?
Result: middle level

Q: For the record `L37F` , report the class its abundance fitness corresponds to.
Result: middle level

Q: Please indicate the class for `K73H` based on its abundance fitness.
Result: upper level

Q: Hey, which category is `G75W` in, do you know?
Result: lower level

Q: Sort `H8Y` into one of the categories.
Result: upper level

Q: Hello team, could you let me know which band the following variant falls into: `L11I`
Result: upper level

Q: Hi there! Could you help me figure out the category for `D66T` please?
Result: lower level
